Recorded values, source PubChem BioAssay (Tox21).

- assay-info: qHTS assay for identifying genotoxic compounds that show differential cytotoxicity against isogenic chicken DT40 cell lines with known DNA damage response pathways - Rev3 mutant cell line (AID 743014); also: nearly all actives have a fitted effect of over 55% in size
- condition-notes: chicken DT40 Rev3-/- viability, CellTiter-Glo, 40 h; series mostly up to 68.4 µM
Results filed as inconclusive are left out. Active and inactive are the calls of the source. Calls follow the shape of the dose curve; as a rule, active = well fitted cell-killing curve with a large enough effect in the repeat runs; inconclusive = weak or mixed curves, or effect the other way; inactive = no such curve, though single readings can be large or run the other way.
Write down one outcome, taken from active, inactive

Here are 8 compounds together with their reported answers.
| compound | category-label |
| --- | --- |
| ClC1=C(Cl)C2(Cl)C3C(Cl)C=CC3C1(Cl)C2(Cl)Cl (configuration not stated) | active |
| C=CC(=O)OCCCCOC(=O)C=C | active |
| CCOP(=S)(OCC)OC(Cl)C(Cl)(Cl)Cl (configuration not stated) | inactive |
| COC(=O)N(C(=O)N1CO[C@@]2(C(=O)OC)Cc3cc(Cl)ccc3C2=N1)c1ccc(OC(F)(F)F)cc1 | active |
| CC1(C)CC/C(=C/c2ccc(Cl)cc2)C1(O)Cn1cncn1 (configuration not stated) | active |
| CC(C)(C)OO | inactive |
| CCOC(=O)CC(=O)CCl | active |
| N#CCCSCCC#N | inactive |

Prompt: Please let me know the test result on file for CCCCCCCCCCCCCC[P+](CCCCCC)(CCCCCC)CCCCCC (tested in a mixture with another compound) .
Completion: active

Prompt: Please let me know the test result on file for `CCCCCCCCCCCCBr` .
Completion: active

Prompt: Please let me know the test result on file for `COc1cccc(C(=O)CCN[C@@H](C)[C@H](O)c2ccccc2)c1` .
Completion: active

Prompt: Please let me know the test result on file for `Fc1cccc(Cl)c1CCl` .
Completion: inactive
